# test_system: T1, human AXL expressed on the cell surface of tumor cell lines (human, UniProt P30530 26-894)
# T1 construct: whole, on cells; also called cell surface-expressed AXL; cell-based AXL
# T1 sequence (looked up): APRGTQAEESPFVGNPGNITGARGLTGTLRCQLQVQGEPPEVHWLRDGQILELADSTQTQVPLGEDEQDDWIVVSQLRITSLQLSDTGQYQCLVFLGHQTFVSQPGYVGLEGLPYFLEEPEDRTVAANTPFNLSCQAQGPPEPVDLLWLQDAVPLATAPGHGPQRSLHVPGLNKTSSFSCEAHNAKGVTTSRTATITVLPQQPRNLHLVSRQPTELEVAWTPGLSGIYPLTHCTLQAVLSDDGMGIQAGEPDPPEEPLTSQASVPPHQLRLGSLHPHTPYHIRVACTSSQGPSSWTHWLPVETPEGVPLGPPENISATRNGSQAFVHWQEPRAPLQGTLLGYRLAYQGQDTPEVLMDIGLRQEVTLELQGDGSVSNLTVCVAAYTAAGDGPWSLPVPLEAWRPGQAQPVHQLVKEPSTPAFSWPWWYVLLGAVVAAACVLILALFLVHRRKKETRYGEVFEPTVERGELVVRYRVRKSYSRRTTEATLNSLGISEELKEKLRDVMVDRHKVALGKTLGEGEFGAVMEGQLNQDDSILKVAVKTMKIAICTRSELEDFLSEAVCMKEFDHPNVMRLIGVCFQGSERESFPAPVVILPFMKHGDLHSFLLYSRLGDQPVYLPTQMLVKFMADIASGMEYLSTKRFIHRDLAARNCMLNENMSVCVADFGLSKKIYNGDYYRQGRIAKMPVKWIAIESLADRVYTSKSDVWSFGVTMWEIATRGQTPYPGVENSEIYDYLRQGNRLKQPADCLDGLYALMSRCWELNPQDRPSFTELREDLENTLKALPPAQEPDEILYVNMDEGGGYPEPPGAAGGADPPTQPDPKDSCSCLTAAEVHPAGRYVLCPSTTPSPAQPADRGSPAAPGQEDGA
# assay: flow cytometry on H292 cells, one site-specific binding with Hill slope
attribute_measured: Bmax (MFI)
One number for each entry, in MFI.

Please review the following examples before continuing.
- F107-8D12 (antibody, V domains shown, also called F107-8D12-2; mAb 8D12) VH: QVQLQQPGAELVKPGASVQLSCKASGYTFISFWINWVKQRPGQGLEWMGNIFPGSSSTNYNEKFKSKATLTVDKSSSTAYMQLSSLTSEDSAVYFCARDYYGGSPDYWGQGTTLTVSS VL: DIVMSQSPSSLAVSAGERVTMSCKSSQSLLNTRTRKNYLAWYQQKPGQSPKLLIYWASTRESGVPDRFTGSGSGTDFTLTISSVQAEDLAVYYCKQSYNLWTFGGGTKLEIK: 1310
- F107-7H5 (antibody, V domains shown, also called F107-7H5-2; mAb 7H5) VH: QVQLQQPGAELVKPGASVKLSCKASGYTFTSYWINWVKQRPGQGLEWIGNIYPDSSSTNYNEKFKSKATLTVDKSSTTAYIQFSSLTSEDSAVYYCTRDTYGGSPDYWGQGTTLTVSS VL: DIVMSQSPSSLAVSAGEKVTMSCKSSQSLLNSRTRKIYLAWYQQKPGQSPKLLIYWASTRQSGVPDRFTGSGSGTDFTLTISSVQAEDLAVYYCKQSYNLWTFGGGTKLEIK: 1430
- F111-3C8 (antibody, V domains shown, also called F111-3C8-2) VH: QVQLQQPGAELGKPGTSVKLSCKASGYTFTSYWMHWVKRVPGQGLEWIGNINPNSTSADYNEKFKRKATLTVDKSSSTAYMQLSTLTSEDSAVYYCTRPLMGPYWYFDVWGTGTTVTVSS VL: QIVLTQSPAIMSASPGEKVTISCSASSSVSYMYWYQQKPGSSPKPWIYRTSNLASGVPARFSGSGSGTSYSLTISSMEAEDAATYYCQQYHNYPPTFGGGTKLEIK: 1480
- F107-10G1 (antibody, V domains shown, also called F107-10G1-3) VH: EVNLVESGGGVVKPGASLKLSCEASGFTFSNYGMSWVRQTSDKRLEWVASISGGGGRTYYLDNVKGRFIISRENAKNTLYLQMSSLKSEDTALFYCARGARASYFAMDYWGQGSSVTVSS VL: VIVMTQSHKFMSTSVGDRVSITCKASQDVTTAVAWYQQKPGQSPKLLIYWASTRHTGVPDRFTGSGSGTDYSLTISNVQTEDLAFYYCQQHFTTPLTFGAGTKLELK: 937

Pending binder:
Which measured Bmax value corresponds to F111-5E9 (antibody, V domains shown, also called F111-5E9-2; mAb 5E9) VH: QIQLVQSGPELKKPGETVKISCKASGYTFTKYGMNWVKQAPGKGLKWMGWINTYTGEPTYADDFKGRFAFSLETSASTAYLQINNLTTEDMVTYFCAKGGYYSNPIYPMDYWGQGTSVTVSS VL: DIQMTQTTSSLSASLGDRVTISCRASQDINNYLNWYQQKPDGTVKLLIYYISRLHSGVPSRFSGSGSGTDYSLTISNLELEDVATYFCQQGNTLPFTFGSGTKLEIK ?
1150
